Test: Rat pharmacokinetics, oral gavage
Assay type: in vivo, Sprague-Dawley rats
Details: Sprague-Dawley, plasma; rat PO 60 mg/kg, male, mean
MEASURED_METRIC: AUC(0-inf) (µg·h/mL)

1. CC(C)(OCc1cc(-c2cccc(OC3CCC3)c2)n(-c2ccccc2N2CCC2)n1)C(=O)O | 447

----------
Test: Dog pharmacokinetics, powder in capsule
Type: in vivo, beagle dogs
Conditions: male, beagle, dog, plasma, po, 3 mg/kg, male beagle dogs, powder in capsule, mean
MEASURED_METRIC: half-life (h)

1. CC(C)(OCc1cc(-c2cccc(OC3CCC3)c2)n(-c2ccccc2N2CCC2)n1)C(=O)O | 6.33

----------
Experiment: Rat pharmacokinetics, oral gavage
Type: in vivo, Sprague-Dawley rats
Details: male, Sprague-Dawley, rat, plasma, po, 60 mg/kg, rat PO 60 mg/kg, male, mean; read-out: AUClast
MEASURED_METRIC: AUC(0-t) (µg·h/mL)

1) CC(C)(OCc1cc(-c2cccc(OC3CCC3)c2)n(-c2ccccc2N2CCC2)n1)C(=O)O | 445

----------
Experiment: Rat pharmacokinetics, oral gavage
Type: in vivo, Sprague-Dawley rats
Settings: male, Sprague-Dawley, rat, plasma, po, 75 mg/kg, rat PO 75 mg/kg, male, mean; read-out: Tmax
Structures can show the parent of a compound that is named as a salt.
MEASURED_METRIC: Tmax (h)

1) CC(C)(OCc1cc(-c2cccc(OC3CCC3)c2)n(-c2ccccc2N2CCC2)n1)C(=O)O [Compound 1 tris salt] | 4

----------
Experiment: in vivo
Set-up: species or system beagle dogs
Conditions: both sexes, beagle, dog
MEASURED_METRIC: NOAEL at 28 days (mg/kg/day)

1. CC(C)(OCc1cc(-c2cccc(OC3CCC3)c2)n(-c2ccccc2N2CCC2)n1)C(=O)O | 150

----------
Assay: Rat pharmacokinetics, oral gavage
Type: in vivo, Sprague-Dawley rats
Conditions: male, Sprague-Dawley, rat, plasma, po, 75 mg/kg, rat, Male, PO/75 mg/kg, Mean ± SD; read-out: Tmax
Structures can show the parent of a compound that is named as a salt.
MEASURED_METRIC: Tmax (h)

1) CC(C)(OCc1cc(-c2cccc(OC3CCC3)c2)n(-c2ccccc2N2CCC2)n1)C(=O)O [Compound 1 tris salt] | 4

----------
Assay: Rat pharmacokinetics, oral gavage
Format: in vivo, Sprague-Dawley rats
Details: male, Sprague-Dawley, rat, plasma, po, 25 mg/kg, rat, Male, PO/25 mg/kg, Mean ± SD; read-out: Tmax
Structures can show the parent of a compound that is named as a salt.
MEASURED_METRIC: Tmax

1. CC(C)(OCc1cc(-c2cccc(OC3CCC3)c2)n(-c2ccccc2N2CCC2)n1)C(=O)O [Compound 1 tris salt] | 2.9 h

----------
Assay: 28-day repeat-dose toxicity study in rats
Type: in vivo
Settings: female, Sprague Dawley, rat, in vivo, po
MEASURED_METRIC: NOAEL at 28 days (mg/kg/day)

1) CC(C)(OCc1cc(-c2cccc(OC3CCC3)c2)n(-c2ccccc2N2CCC2)n1)C(=O)O [Compound 1] | 75

----------
Assay: Rat pharmacokinetics, oral gavage
Type: in vivo, Sprague-Dawley rats
Conditions: male, Sprague-Dawley, rat, plasma, po, 20 mg/kg, rat, Male, PO/20 mg/kg, Mean ± SD; read-out: Cmax
MEASURED_METRIC: Cmax (ng/mL)

1) CC(C)(OCc1cc(-c2cccc(OC3CCC3)c2)n(-c2ccccc2N2CCC2)n1)C(=O)O | 30600

----------
Experiment: Kinetic solubility in biorelevant media
Format: physicochemical
Conditions: fasted-state simulated intestinal fluid (FaSSIF), pH 6.5, thermodynamic from solid; FaSSIF, before gradual decrease; read-out: Solubility, initial
Counter-ions that a name gives are not always drawn.
MEASURED_METRIC: solubility

1) CC(C)(OCc1cc(-c2cccc(OC3CCC3)c2)n(-c2ccccc2N2CCC2)n1)C(=O)O [tris salt Form B] | ≥ 3000 µg/mL

----------
Assay: Rat pharmacokinetics, oral gavage
Assay type: in vivo, Sprague-Dawley rats
Settings: female, Sprague-Dawley, rat, plasma, po, 200 mg/kg, rat, Female, PO/200 mg/kg, Mean ± SD; read-out: Cmax
MEASURED_METRIC: Cmax (µg/mL)

1) CC(C)(OCc1cc(-c2cccc(OC3CCC3)c2)n(-c2ccccc2N2CCC2)n1)C(=O)O | 206

----------
Assay: Kinetic solubility in biorelevant media
Format: physicochemical
Details: fasted-state simulated intestinal fluid (FaSSIF), thermodynamic from solid; FaSSIF #2 pH 6.5, room temperature, t = 4 hours
Structures can show the parent of a compound that is named as a salt.
MEASURED_METRIC: solubility at 4 h

1) CC(C)(OCc1cc(-c2cccc(OC3CCC3)c2)n(-c2ccccc2N2CCC2)n1)C(=O)O [tris salt Form B] | 851 µg/mL

----------
Test: Rat pharmacokinetics, oral gavage
Type: in vivo, Sprague-Dawley rats
Conditions: male, Sprague-Dawley, rat, plasma, po, 250 mg/kg, rat PO 250 mg/kg, male, mean; read-out: AUClast
Structures can show the parent of a compound that is named as a salt.
MEASURED_METRIC: AUC(0-t)

1) CC(C)(OCc1cc(-c2cccc(OC3CCC3)c2)n(-c2ccccc2N2CCC2)n1)C(=O)O [Compound 1 tris salt] | 2090 µg·h/mL

----------
Assay: Rat pharmacokinetics, oral gavage
Type: in vivo, Sprague-Dawley rats
Conditions: Sprague-Dawley, plasma; rat PO 250 mg/kg, male, mean
Protocol: Groups, Dosing, and Collection. […] Appropriate serial concentrations of working solutions were achieved by diluting stock solution of analyte with 50% acetonitrile in water solution. […] 2 μL of the supernatant was injected into the LC/MS/MS system for quantitative analysis. […]
Structures can show the parent of a compound that is named as a salt.
MEASURED_METRIC: half-life (h)

1) CC(C)(OCc1cc(-c2cccc(OC3CCC3)c2)n(-c2ccccc2N2CCC2)n1)C(=O)O [Compound 1 tris salt] | 12.2

----------
Assay: Dog pharmacokinetics, powder in capsule
Format: in vivo, beagle dogs
Settings: male beagle dogs, powder in capsule, 3 mg/kg, mean
Counter-ions that a name gives are not always drawn.
MEASURED_METRIC: T1/2 (h)

1) CC(C)(OCc1cc(-c2cccc(OC3CCC3)c2)n(-c2ccccc2N2CCC2)n1)C(=O)O [Compound 1 tris salt] | 3.63

----------
Test: Rat pharmacokinetics, oral gavage
Format: in vivo, Sprague-Dawley rats
Conditions: female, Sprague-Dawley, rat, plasma, po, 200 mg/kg, rat PO 200 mg/kg, female, mean; read-out: AUClast
MEASURED_METRIC: AUC(0-t)

1. CC(C)(OCc1cc(-c2cccc(OC3CCC3)c2)n(-c2ccccc2N2CCC2)n1)C(=O)O | 2850 µg·h/mL

----------
Assay: Dog pharmacokinetics, oral gavage suspension
Type: in vivo, beagle dogs
Details: dog, plasma; male beagle dogs, oral suspension, 30 mg/kg, mean
Structures can show the parent of a compound that is named as a salt.
MEASURED_METRIC: MRT last (h)

1) CC(C)(OCc1cc(-c2cccc(OC3CCC3)c2)n(-c2ccccc2N2CCC2)n1)C(=O)O [Compound 1 tris salt] | 3.81

----------
Assay: Rat pharmacokinetics, oral gavage
Format: in vivo, Sprague-Dawley rats
Details: male, Sprague-Dawley, rat, plasma, po, 60 mg/kg, rat, Male, PO/60 mg/kg, Mean ± SD; read-out: AUC0-24
MEASURED_METRIC: AUC(0-t) (µg·h/mL)

1. CC(C)(OCc1cc(-c2cccc(OC3CCC3)c2)n(-c2ccccc2N2CCC2)n1)C(=O)O [Compound 1] | 445

----------
Assay: ADME: intravenous clearance and oral bioavailability
Format: in vivo
Conditions: plasma; oral administration, species evaluated
MEASURED_METRIC: bioavailability

1. CC(C)(OCc1cc(-c2cccc(OC3CCC3)c2)n(-c2ccccc2N2CCC2)n1)C(=O)O [Compound 1] | > 30%

----------
Assay: Kinetic solubility in biorelevant media
Assay type: physicochemical
Settings: fasted-state simulated gastric fluid (FaSSGF), fassgf or other biorelevant, thermodynamic from solid; FaSSGF pH 1.6, room temperature, t = 24 hours
Structures can show the parent of a compound that is named as a salt.
MEASURED_METRIC: solubility at 24 h (µg/mL)

1. CC(C)(OCc1cc(-c2cccc(OC3CCC3)c2)n(-c2ccccc2N2CCC2)n1)C(=O)O [tris salt Form B] | 0.39

----------
Experiment: Rat pharmacokinetics, oral gavage
Type: in vivo, Sprague-Dawley rats
Conditions: female, Sprague-Dawley, rat, plasma, po, 60 mg/kg, rat PO 60 mg/kg, female, mean; read-out: Tmax
MEASURED_METRIC: Tmax (h)

1) CC(C)(OCc1cc(-c2cccc(OC3CCC3)c2)n(-c2ccccc2N2CCC2)n1)C(=O)O | 4.67

----------
Assay: Rat pharmacokinetics, oral gavage
Format: in vivo, Sprague-Dawley rats
Details: male, Sprague-Dawley, rat, plasma, po, 250 mg/kg, rat PO 250 mg/kg, male, mean; read-out: Cmax
Structures can show the parent of a compound that is named as a salt.
MEASURED_METRIC: Cmax

1. CC(C)(OCc1cc(-c2cccc(OC3CCC3)c2)n(-c2ccccc2N2CCC2)n1)C(=O)O [Compound 1 tris salt] | 144 µg/mL
